// data source = patent US6743929B1

- Test system: HIV-1
- Procedure summary: CEM cell assay: HIV inhibition in acutely infected cells (MTT)
- Type: cell-based
- Assay setup: Human immunodeficiency virus 1, CCRF-CEM, 168 h
Result type: EC50
Provide a numeric answer, followed by its unit.

I looked up CC(=O)Nc1ccc(S(=O)(=O)N(CC(C)C)C[C@@H](O)[C@H](Cc2ccccc2)NC(=O)[C@H](C)CS(C)(=O)=O)cc1 (relative stereo) [Example 10] and its EC50 for HIV-1 was 223 nM

###

Field: TD50 (nM). Provide a value for each of the compounds that follow.
- Tested on: CEM cells
- Procedure summary: CEM cell assay: intrinsic toxicity of test compound in uninfected cells (MTT)
- Assay type: cell-based
- Assay setup: Table 10, CEM cells without virus, 7 days

# TD50 (nM) (compound: CC(=O)Nc1ccc(S(=O)(=O)N(CC(C)C)C[C@@H](O)[C@H](Cc2ccccc2)NC(=O)[C@H](C)CS(C)(=O)=O)cc1 (relative stereo) ) is 860,000 nM

# TD50 (nM) (compound: CC(C)CN(C[C@@H](O)[C@H](Cc1ccccc1)NC(=O)[C@H](C)CS(C)(=O)=O)S(=O)(=O)c1ccccc1 (relative stereo) ) is 213,000 nM

# TD50 (nM) (compound: COc1ccc(S(=O)(=O)N(CC(C)C)C[C@@H](O)[C@H](Cc2ccccc2)NC(=O)[C@H](C)CS(C)(=O)=O)cc1OC (relative stereo) ) is 77,000 nM

# TD50 (nM) (compound: CCCN(C[C@@H](O)[C@H](Cc1ccccc1)NC(=O)[C@H](C)CS(C)(=O)=O)S(=O)(=O)c1ccc(OC)cc1 (relative stereo) ) is >1,000,000 nM

# TD50 (nM) (compound: CCCN(C[C@@H](O)[C@H](Cc1ccccc1)NC(=O)[C@H](C)CS(C)(=O)=O)S(=O)(=O)c1ccccc1 (relative stereo) ) is 438,000 nM

# TD50 (nM) (compound: CC(C)CCN(C[C@@H](O)[C@H](Cc1ccccc1)NC(=O)[C@H](C)CS(C)(=O)=O)S(=O)(=O)c1ccccc1 (relative stereo) ) is >1,000,000 nM

# TD50 (nM) (compound: CC(C)CCN(C[C@@H](O)[C@H](Cc1ccccc1)NC(=O)[C@H](C)CS(C)(=O)=O)S(=O)(=O)c1ccc(N)cc1 (relative stereo) ) is 170,000 nM

# TD50 (nM) (compound: COc1ccc(S(=O)(=O)N(CC(C)C)C[C@@H](O)[C@H](Cc2ccccc2)NC(=O)[C@H](C)CS(C)(=O)=O)cc1 (relative stereo) ) is >1,000,000 nM

# TD50 (nM) (compound: CCCCN(C[C@@H](O)[C@H](Cc1ccccc1)NC(=O)[C@H](C)CS(C)(=O)=O)S(=O)(=O)c1ccc(OC)cc1 (relative stereo) ) is >1,000,000 nM

# TD50 (nM) (compound: COc1ccc(S(=O)(=O)N(CCC(C)C)C[C@@H](O)[C@H](Cc2ccccc2)NC(=O)[C@H](C)CS(C)(=O)=O)cc1 (relative stereo) ) is 90,000 nM

# TD50 (nM) (compound: CCCCN(C[C@@H](O)[C@H](Cc1ccccc1)NC(=O)[C@H](C)CS(C)(=O)=O)S(=O)(=O)c1ccccc1 (relative stereo) ) is 133,000 nM
